Reference source for all entries: patent US10287253B2

Molecular target: UniProt Q9NYK1
Sequence (Q9NYK1 27-1049): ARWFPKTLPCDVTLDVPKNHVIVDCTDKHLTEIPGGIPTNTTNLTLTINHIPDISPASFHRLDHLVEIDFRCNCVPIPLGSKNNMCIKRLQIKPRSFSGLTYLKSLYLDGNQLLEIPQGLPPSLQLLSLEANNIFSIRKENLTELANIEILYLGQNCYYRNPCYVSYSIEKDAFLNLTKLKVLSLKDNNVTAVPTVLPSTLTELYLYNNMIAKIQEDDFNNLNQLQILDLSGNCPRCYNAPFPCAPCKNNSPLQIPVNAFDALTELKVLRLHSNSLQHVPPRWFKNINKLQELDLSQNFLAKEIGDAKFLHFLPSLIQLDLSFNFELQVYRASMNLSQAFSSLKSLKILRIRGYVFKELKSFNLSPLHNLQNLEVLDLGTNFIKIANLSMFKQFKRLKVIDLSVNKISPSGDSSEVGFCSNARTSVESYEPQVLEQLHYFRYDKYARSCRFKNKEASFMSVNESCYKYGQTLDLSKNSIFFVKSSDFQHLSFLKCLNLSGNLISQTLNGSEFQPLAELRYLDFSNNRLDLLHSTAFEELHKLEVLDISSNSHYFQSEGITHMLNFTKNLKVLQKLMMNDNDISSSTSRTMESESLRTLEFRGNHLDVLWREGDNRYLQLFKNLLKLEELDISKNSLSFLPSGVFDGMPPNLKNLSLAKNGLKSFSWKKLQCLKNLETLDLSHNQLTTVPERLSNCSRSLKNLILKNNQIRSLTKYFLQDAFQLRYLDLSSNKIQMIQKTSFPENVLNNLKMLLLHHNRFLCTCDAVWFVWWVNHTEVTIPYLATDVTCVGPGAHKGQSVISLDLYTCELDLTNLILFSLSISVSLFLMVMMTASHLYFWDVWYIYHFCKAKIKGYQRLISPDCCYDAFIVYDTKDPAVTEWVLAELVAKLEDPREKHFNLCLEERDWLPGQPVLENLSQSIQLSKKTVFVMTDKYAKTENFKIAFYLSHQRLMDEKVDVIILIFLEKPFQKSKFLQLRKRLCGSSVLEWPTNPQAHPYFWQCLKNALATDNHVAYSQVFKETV
Test: HEK TLR7 assay (HEK-Blue hTLR7 cells, NF-kB/AP-1 SEAP reporter)
Settings: HEK-Blue hTLR7 cells, 16 h incubation, SEAP read at 620-655 nm
From the text: HEK-Blue™ TLR7 cells were purchased from Invivogen (San Diego, Calif.). The following description was taken from the product information sheet. “HEK-Blue™ hTLR7 cells are designed for studying the stimulation of human TLR7 (hTLR7) by monitoring the activation of NF-kB. […] Stimulation with a TLR7 ligand activates NF-kB and AP-1 which induce the production of SEAP, which is detected by the HEK-Blue™ Detection cell culture medium.” […]
QUANTITY MEASURED: EC50

* CCCC[C@@H](CCS(C)(=O)=O)Nc1nc(N)nc(C)c1Cc1cc(CC(=O)O)ccc1OC | 100 to 1000 nM
* CCCC[C@@H](CCS(C)(=O)=O)Nc1nc(N)nc(CCC(=O)O)c1Cc1cc(CC(=O)O)ccc1OC | 100 to 1000 nM
* CCCCNc1nc(N)nc(CCC(=O)O)c1CCc1ccc(OC)cc1 | 1000 to 10000 nM
* CCCCNc1nc(N)nc(C)c1Cc1cc(C(=O)NCCCP(=O)(O)O)ccc1OC | 100 to 1000 nM
* CCC[C@@H](CO)Nc1nc(N)nc(C)c1Cc1cc(Cc2nn[nH]n2)ccc1OC | 100 to 1000 nM
* CCCC[C@H](CC(=O)O)Nc1nc(N)nc(C)c1Cc1cc(Cc2nn[nH]n2)ccc1OC [Compound 20C] | 1000 to 10000 nM
* CCCC[C@@H](CCO)Nc1nc(N)nc(C)c1Cc1cc(Cc2nn[nH]n2)ccc1OC | < 100 nM
* CCCCNc1nc(N)nc(C)c1Cc1cc(-c2nn[nH]n2)ccc1OC | 100 to 1000 nM
* CCCCNc1nc(N)nc(CCC(=O)O)c1Cc1ccccc1OC | 100 to 1000 nM
* CCCCNc1nc(N)nc(C)c1Cc1cc(P(=O)(O)O)ccc1OC | 100 to 1000 nM
* CCCCNc1nc(N)nc(C)c1Cc1ccc(CCC(=O)O)cc1OC | 1000 to 10000 nM
* CCCC[C@@H](CCSC)Nc1nc(N)nc(CCC(=O)O)c1Cc1cc(Cc2nn[nH]n2)ccc1OC | < 100 nM
